biological target: σ1 receptor and the μ-opiod receptor; test: μ and σ1 dual binding: combined class from the Ki of both radioligand assays; set-up: species or system human; details: transfected HEK-293 membranes (σ1), transfected CHO-K1 cell membranes (μ)
In this section we review reported Ki range for both μ and σ1 (dual-binding class) values for a set of compounds.

Some solved cases for reference:
compound: Oc1cccc(C2CCN(Cc3cn(-c4cccnc4)nn3)CC2)c1 [Example 10]
observed: < 500 nM
--
compound: Oc1cccc(C2CCN(Cc3cn(Cc4ccccc4F)nn3)CC2)c1 [Example 4]
observed: < 100 nM
--
compound: CS(=O)(=O)Nc1cccc(C2CCN(Cc3cn(C4CCc5ccccc54)nn3)CC2)c1 (centres unmarked) [Example 48]
observed: < 500 nM
--
compound: CS(=O)(=O)Nc1cccc(C2CCN(Cc3cc(-c4ccccc4)no3)CC2)n1 [Example 200]
observed: < 500 nM

Value (Ki range for both μ and σ1 (dual-binding class), σ1 receptor and the μ-opiod receptor) for record Oc1cccc(C2CCN(Cc3cnn(Cc4ccccn4)c3)CC2)c1 [Example 171] = < 500 nM

----------
Overview of reported Ki range for both μ and σ1 (dual-binding class) across a group of compounds:
target: σ1 receptor and the μ-opiod receptor; assay: μ and σ1 dual binding: combined class from the Ki of both radioligand assays; parameters: species or system human; details: transfected HEK-293 membranes (σ1), transfected CHO-K1 cell membranes (μ)

Memo: Oc1cccc(C2CCN(Cc3cn(-c4ncccc4Cl)nn3)CC2)c1 , reported Ki range for both μ and σ1 (dual-binding class): < 500 nM

In plain terms, CS(=O)(=O)Nc1cc(F)cc(C2CCN(Cc3cn(-c4ccccc4)nn3)CC2)c1 has a documented Ki range for both μ and σ1 (dual-binding class) of < 100 nM

For record Cc1ccc(F)c(-n2cc(CN3CCC(c4cccc(O)c4)CC3)nn2)c1 the listed Ki range for both μ and σ1 (dual-binding class) is < 100 nM

The compound listed as c1ccc(Cn2cc(CN3CCC(c4cccc(Nc5nccs5)c4)CC3)nn2)nc1 has a reported Ki range for both μ and σ1 (dual-binding class) of < 500 nM

So for CC(C)S(=O)(=O)Nc1cccc(C2CCN(Cc3cnn(Cc4ccccn4)c3)CC2)c1 , the logged Ki range for both μ and σ1 (dual-binding class) turned out to be < 500 nM

The measured Ki range for both μ and σ1 (dual-binding class) associated with CS(=O)(=O)Nc1ccc(F)c(C2CCN(Cc3cc(-c4ccccc4)no3)CC2)c1 reads < 500 nM

In plain terms, Oc1cccc(C2CCN(Cc3cn([C@@H]4c5ccccc5C[C@@H]4O)nn3)CC2)c1 has a documented Ki range for both μ and σ1 (dual-binding class) of < 500 nM

Kindly note the recorded Ki range for both μ and σ1 (dual-binding class) for CC(=O)Nc1cccc(C2CCN(Cc3cn(-c4ccccc4)nn3)CC2)c1 , which is < 500 nM

----------
molecular target: σ1 receptor and the μ-opiod receptor; experiment: μ and σ1 dual binding: combined class from the Ki of both radioligand assays; set-up: species or system human; details: transfected HEK-293 membranes (σ1), transfected CHO-K1 cell membranes (μ)
quantity kind: Ki range for both μ and σ1 (dual-binding class)

Study these solved cases before continuing.
compound: Oc1cccc(C2CCN(Cc3cn(Cc4ccc(C(F)(F)F)cn4)nn3)CC2)c1 [Example 152]
observed: < 100 nM
--
compound: Oc1cccc(C2CCN(Cc3cn(Cc4ccccc4)nn3)CC2)c1 [Example 8]
observed: < 100 nM

Would you kindly look at the next entry?
Form field Ki range for both μ and σ1 (dual-binding class), entry CCCn1cc(CN2CCC(c3cccc(O)c3)CC2)nn1 [Example 3] : < 500 nM
